Below, each entry is listed with its recorded cytotoxicity at 70.5 h.
# Assay procedure: Human HepG2 cell viability assay in 384 well format
# Assay type: toxicity, cell-based
# Parameters: dose 125 nL, time 70.5 hour; concentration not given beside the values
# Condition label: HepG2 cells, read-out: Inhibition
Measured quantity: cytotoxicity at 70.5 h (%)

INSERT INTO results (molecule, reading_unit, recorded_measurement) VALUES
  ('Cc1ccc(NC(=O)CN2CCC(OCC3CCCO3)CC2)c(C)c1 (stereo not drawn)', '%', 5.15),
  ('CCN(CC)C(=O)c1ccn(COc2cc(C)cc(C)c2)n1', '%', 4.47),
  ('COCCn1ccc2c(C(=O)NCC3CCCO3)cccc21 (stereo not drawn)', '%', -8.34),
  ('O=C(CCc1nc2ccccc2[nH]1)N1CCCC(n2cccn2)C1 (stereo not drawn)', '%', 2.61),
  ('COCCN1C[C@H]2CN(C(=O)NCc3ccccc3)CCN2C1=O', '%', -8.58),
  ('CC(NCc1ccc(F)cc1)c1ccc(OCC(=O)NC2CC2)cc1 (stereo not drawn)', '%', 25.6),
  ('Cc1cc(C)n(CCC(=O)N2CCCC(n3nc(C)nc3C)C2)n1 (stereo not drawn)', '%', -6.97),
  ('Cc1cc(C)n(CC2CCCN2Cc2ccc(F)cc2C#N)n1 (stereo not drawn)', '%', -4.46),
  ('CC/C=C(/C)C(=O)N1CSCC1C(=O)N(C)CCc1ccncc1 (stereo not drawn)', '%', -4.98),
  ('O=C(NCc1ccccn1)[C@@]12CCO[C@@H]1CCN(Cc1ccccn1)C2', '%', -5.8),
  ('CCCOCCn1ncc(N2CCCC2)cc1=O', '%', -1.75),
  ('Cc1cc(S(=O)(=O)Nc2cccc(OC(F)F)c2)sc1C(=O)O', '%', 16.4),
  ('CC(C)c1ncc2c(n1)CN(Cc1nc(-c3ccoc3)no1)CC2', '%', -16.7),
  ('Cc1ccc(C2(CN3CCN(Cc4cn(C)nc4C)CC3)CC2)cc1', '%', -11.3),
  ('O=C(O)[C@@H]1CN(CC2CCC2)C[C@H]1c1ccc(F)cc1', '%', -7.16),
  ('O=C1O[C@@H]2CN(Cc3cc4ccccc4s3)C[C@@H]2N1Cc1ccccn1', '%', -6.44),
  ('COC(=O)NCC(=O)NC1(C)CCc2ccccc2C1 (stereo not drawn)', '%', -8.98),
  ('NC(=O)COc1ccc(CN2CC[C@@]3(O)CCCC[C@H]3C2)cc1Cl', '%', -2.71),
  ('Cc1nc(C2CCN(C)CC2)cc(N2CCOc3ccc(Cl)cc3C2)n1', '%', 32.5),
  ('Cc1cccc(S(=O)(=O)N2CSCC2C(=O)NCC2CC2)c1 (stereo not drawn)', '%', -2.32),
  ('O=C(c1cc(F)ccc1F)C1CCN(C(=O)c2ccccn2)CC1', '%', -12.2),
  ('CCN(c1ccc(C(=O)NCCN2CCOCC2)cc1)S(=O)(=O)CC', '%', -25.1),
  ('Cc1nnc(N2CC[C@H]3C[C@@H](C(=O)NC4CCCC4)O[C@H]3C2)s1', '%', 27);

---

# Assay procedure: Human HepG2 cell viability assay in 384 well format
# Format: toxicity, cell-based
# Design: dose 125 nL, time 70.5 hour; concentration not given beside the values
# Condition label: HepG2 cells, read-out: Inhibition
Below, each entry is listed with its recorded cytotoxicity at 70.5 h.
Measured quantity: cytotoxicity at 70.5 h (%)

INSERT INTO assay_data (molecule, measured_quantity, recorded_measurement) VALUES
  ('O=C(Cc1cccs1)NCc1ccnc(C2CCCOC2)n1 (configuration not stated)', 'cytotoxicity at 70.5 h', 3.29),
  ('CCn1ccnc1C1CCN(Cc2cccc(Cl)c2)CC1', 'cytotoxicity at 70.5 h', 37.8),
  ('Cc1cc2ncn(C(=O)N3CCCCC3)c2cc1C', 'cytotoxicity at 70.5 h', -7.84),
  ('O=C(c1ccnc(NC2CC2)c1)N1CCCC1c1cccc(Br)c1 (configuration not stated)', 'cytotoxicity at 70.5 h', -6.56),
  ('Cc1ccc(C)c(CC(=O)NC2CCC(N3C(=O)CCC3=O)CC2)c1 (configuration not stated)', 'cytotoxicity at 70.5 h', -1.42),
  ('CC1CCCCN1Cc1ccc(-c2ccccc2C(=O)O)cc1 (configuration not stated)', 'cytotoxicity at 70.5 h', 0.911),
  ('Cc1cccc(OC2CCN(C(=O)NCc3cc[nH]n3)CC2)c1C', 'cytotoxicity at 70.5 h', 0.923),
  ('CN(CCc1ccccc1)Cc1nc(-c2cnccn2)no1', 'cytotoxicity at 70.5 h', -8.36),
  ('CN(C)C(=O)C1CCN(c2cncc(-n3cccn3)n2)CC1', 'cytotoxicity at 70.5 h', 10.2),
  ('O=C(Nc1ncnc2c1CCC2)c1cccc(F)c1', 'cytotoxicity at 70.5 h', 11.5),
  ('CN(CCCc1cnn(C)c1)C(=O)C1CCOC1 (configuration not stated)', 'cytotoxicity at 70.5 h', 12.6),
  ('CN(Cc1cccc(O)c1)C(=O)Nc1cccnc1N1CCCC1', 'cytotoxicity at 70.5 h', 16.2);

---

# Assay procedure: Human HepG2 cell viability assay in 384 well format
# Assay type: toxicity, cell-based
# Set-up: dose 125 nL, time 70.5 hour; concentration not given beside the values
# Condition label: HepG2 cells, read-out: Inhibition
Measured quantity: cytotoxicity at 70.5 h (%)

INSERT INTO measurements (molecule, measured_quantity, recorded_measurement) VALUES
  ('Cc1nnc(NC(=O)CN2CCCC(c3ccn[nH]3)C2)s1 (configuration not stated)', 'cytotoxicity at 70.5 h', 18.6),
  ('CC(C)(C)SCCNC(=O)[C@@]12CNC[C@@H]1CN(S(C)(=O)=O)C2', 'cytotoxicity at 70.5 h', -2.8),
  ('Cc1ccc(-c2nnc(CN3CCCC(O)(CO)CC3)o2)n1C (configuration not stated)', 'cytotoxicity at 70.5 h', 14.8),
  ('COc1cc(S(=O)(=O)N2CCCc3ccccc32)cc(C(=O)O)c1OC', 'cytotoxicity at 70.5 h', 5.62),
  ('Cc1nn(CC(O)CN2CCc3ccccc3C2)c(=O)c2ccccc12 (configuration not stated)', 'cytotoxicity at 70.5 h', -17.4),
  ('COc1cccc(C(C(=O)O)N2CCCN(c3ccnc(C)c3)CC2)c1 (configuration not stated)', 'cytotoxicity at 70.5 h', -7.15),
  ('COc1cccc(COCC(=O)N2CCC(CC(N)=O)CC2)c1', 'cytotoxicity at 70.5 h', 4.02),
  ('O=C(Nc1nc(-c2ccccc2)ns1)N1CCC(F)CC1', 'cytotoxicity at 70.5 h', -3.26),
  ('COCCCN1CCc2cncnc2C1', 'cytotoxicity at 70.5 h', -18.2),
  ('COCCN(C)CCN1CC2(CCN(C3CCCNC3)CC2)OC1=O (configuration not stated)', 'cytotoxicity at 70.5 h', -4.32),
  ('Cc1cccc(C(C)(C)NC(=O)CCS(C)(=O)=O)c1', 'cytotoxicity at 70.5 h', -3.08),
  ('OC1(CN2CCCCC2)CCN(c2cccc(C(F)(F)F)n2)C1 (configuration not stated)', 'cytotoxicity at 70.5 h', -14.1);

---

Below, each entry is listed with its recorded cytotoxicity at 70.5 h.
# Assay procedure: Human HepG2 cell viability assay in 384 well format
# Assay type: toxicity, cell-based
# Parameters: dose 125 nL, time 70.5 hour; concentration not given beside the values
# Condition label: HepG2 cells, read-out: Inhibition
Measured quantity: cytotoxicity at 70.5 h (%)

INSERT INTO assay_data (compound, measured_quantity, reading_unit, recorded_measurement) VALUES
  ('CCn1c(CN2CCN(CCO)CC2)nc2c(F)cccc21', 'cytotoxicity at 70.5 h', '%', -4.39),
  ('Cc1ccc(S(N)(=O)=O)cc1C(=O)NC1CCCN(C)C1 (configuration not stated)', 'cytotoxicity at 70.5 h', '%', 1.47),
  ('O=C1CC(NCc2ccc(Cl)s2)CN1Cc1cccc(F)c1 (configuration not stated)', 'cytotoxicity at 70.5 h', '%', -7.49),
  ('Cc1noc(C2CCN(C(=O)c3cc(Br)ccc3F)CC2)n1', 'cytotoxicity at 70.5 h', '%', -2.54),
  ('CN(C)C(=O)CNC(=O)c1cc2c(s1)CCN2S(C)(=O)=O', 'cytotoxicity at 70.5 h', '%', -10.7),
  ('CCc1oc(C(=O)NC(C)Cc2cnccn2)cc1CN1CCCC1 (configuration not stated)', 'cytotoxicity at 70.5 h', '%', -14.2),
  ('CCN(C(=O)NCc1ccccc1OC(F)F)C(C)c1cccnc1 (configuration not stated)', 'cytotoxicity at 70.5 h', '%', 0.0177),
  ('COCCNC(=O)Nc1ccc(-n2cncn2)c(C(F)(F)F)c1', 'cytotoxicity at 70.5 h', '%', -3.51),
  ('Cc1c(Br)cnn1CCC(=O)N(C)Cc1c(Cl)cnn1C', 'cytotoxicity at 70.5 h', '%', 30.7),
  ('CNC(=O)CN1CCOCC2(CCCN(Cc3ccc(F)cc3)C2)C1 (configuration not stated)', 'cytotoxicity at 70.5 h', '%', -9.75),
  ('COCCNS(=O)(=O)c1cccc2c1CN(C(=O)c1ccoc1)CC2', 'cytotoxicity at 70.5 h', '%', -10.7),
  ('CC(C)c1cc(C(=O)N(C)Cc2cccc3ncccc23)n(C)n1', 'cytotoxicity at 70.5 h', '%', -3.18);

Data origin: ChEMBL document CHEMBL3507680
